# Tested on: SH-SY5Y cells
# run.description: Thapsigargin treated cell death assay in SH-SY5Y cells
# Assay type: cell-based, human
# condition.context: compound at 10 μM; positive = protection from cell death, negative = compound toxicity
// map SYSY [10 μM] % recovery onto a label; ranges LOW = under 20%, MID = from 20% up to 40%, HIGH = 40% and over

Take a look at these entries with their results.
compound: C[C@@H]1NC(=O)[C@H](CCCN)OC(=O)C(C)(C)/C=C/c2ccc3ccc(nc3c2)N(C)NC(=O)[C@@H]2CCCN(N2)C1=O
discrete.label: MID
--
compound: C[C@@H]1NC(=O)[C@H](CCl)OC(=O)C(C)(C)/C=C/c2ccc3ccc(nc3c2)N(C)NC(=O)[C@@H]2CCCN(N2)C1=O
discrete.label: MID
--
compound: CC(C)[C@@H]1CC(=O)C(C)(C)/C=C/c2ccc3ccc(nc3c2)N(C)NC(=O)[C@@H]2CCCN(N2)C(=O)[C@H](C)NC1=O
discrete.label: MID
--
compound: C[C@@H]1NC(=O)[C@H](Cc2cccc(N)c2)OC(=O)C(C)(C)/C=C/c2ccc3ccc(nc3c2)N(C)NC(=O)[C@@H]2CCCN(N2)C1=O
discrete.label: MID
--
compound: CC(C)[C@@H]1OC(=O)C(C)(C)/C=C/c2ccc3ccc(nc3c2)N(C)NC(=O)[C@@H]2CCCN(N2)C(=O)[C@H](Cc2ccccc2)NC1=O
discrete.label: MID
--
compound: C[C@@H]1NC(=O)[C@H](CC2CCCNC2)NC(=O)C(C)(C)/C=C/c2ccc3ccc(nc3c2)N(C)NC(=O)[C@@H]2CCCN(N2)C1=O (some centres unmarked)
discrete.label: MID
--
compound: C[C@@H]1NC(=O)[C@@H](CC2CCCNC2)OC(=O)C(C)(C)/C=C/c2ccc3ccc(nc3c2)N(C)N(C)C(=O)[C@@H]2CCCN(N2)C1=O (single isomer, unassigned)
discrete.label: LOW
--
compound: C[C@@H]1NC(=O)C(Cc2ccc(N)nc2)OC(=O)C(C)(C)/C=C/c2ccc3ccc(nc3c2)N(C)NC(=O)[C@@H]2CCCN(N2)C1=O (some centres unmarked)
discrete.label: LOW

Q) Determine which band this compound sits in: `C[C@@H]1NC(=O)[C@H](CN2CCNCC2)OC(=O)C(C)(C)/C=C/c2ccc3ccc(nc3c2)N(C)NC(=O)[C@@H]2CCCN(N2)C1=O`
A) HIGH

Q) // return the class label for `CC(C)[C@@H]1OC(=O)C(C)(C)/C=C/c2ccc3ccc(nc3c2)N(C)NC(=O)[C@@H]2CCCN(N2)C(=O)[C@H](CC2CCN(C)CC2)NC1=O`
A) HIGH

Q) Bin? `CC(C)[C@@H]1OC(=O)C(C)(C)/C=C/c2ccc3ccc(nc3c2)N(C)NC(=O)[C@@H]2CCCN(N2)C(=O)[C@H](CCC(=O)N2CCNCC2)NC1=O`
A) LOW

* * *

# Test system: SH-SY5Y cells
# run.description: Thapsigargin treated cell death assay in SH-SY5Y cells
# Format: cell-based, human
# condition.context: compound at 10 μM; positive = protection from cell death, negative = compound toxicity
Given measured SYSY [10 μM] % recovery, output criterion met if it is greater than or equal to 50% and criterion not met if not.

compound: CC(C)[C@H]1OC(=O)C/C=C/c2ccc3ccc(nc3c2)N(C)NC(=O)[C@@H]2CCCN(N2)C(=O)[C@H](C)NC1=O (stereo in doubt)
measured.target: SH-SY5Y cells
discrete.label: criterion not met
--
compound: C[C@@H]1NC(=O)[C@H](C[C@@H]2CCCNC2)OC(=O)C(C)(C)/C=C/c2ccc3ccc(nc3c2)N(C)NC(=O)[C@@H]2CCCN(N2)C1=O
measured.target: SH-SY5Y cells
discrete.label: criterion not met

Q) API: above_or_equal(metric=SYSY [10 μM] % recovery, cutoff=50%) for item `CC(C)[C@@H]1OC(=O)C(C)(C)/C=C/c2ccc3ccc(nc3c2)N(C)NC(=O)[C@@H]2CCCN(N2)C(=O)[C@H](CCC(=O)NCc2cnn(C)c2)NC1=O`
A) criterion not met

Q) Please check the record `CC(C)[C@@H]1OC(=O)[C@@](C)(Cc2ccccc2)/C=C/c2ccc3ccc(nc3c2)N(C)NC(=O)[C@@H]2CCCN(N2)C(=O)[C@H](C)NC1=O` and state if its SYSY [10 μM] % recovery is at or above 50%.
A) criterion met

Q) Has `CC(C)[C@@H]1OC(=O)C(C)(C)/C=C/c2ccc3ccc(nc3c2)N(C)NC(=O)[C@@H]2CCCN(N2)C(=O)[C@H](CCC(=O)Nc2ccccc2)NC1=O` a recorded SYSY [10 μM] % recovery greater than or equal to 50%?
A) criterion not met
